# tested-on: Single-strand selective monofunctional uracil DNA glycosylase (Homo sapiens) (UniProt Q53HV7)
# Sequence (Q53HV7 whole entry): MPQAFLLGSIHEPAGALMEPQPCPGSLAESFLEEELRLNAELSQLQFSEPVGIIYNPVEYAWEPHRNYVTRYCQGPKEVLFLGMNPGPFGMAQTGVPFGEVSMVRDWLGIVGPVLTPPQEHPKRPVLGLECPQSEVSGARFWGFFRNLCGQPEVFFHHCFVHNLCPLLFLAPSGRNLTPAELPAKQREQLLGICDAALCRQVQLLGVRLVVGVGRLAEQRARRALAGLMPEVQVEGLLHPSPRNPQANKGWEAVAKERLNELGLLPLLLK
# test-parameters: Compound Concentration 10.0 uM, Hit No;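 note: enzymatic SMUG1 assay coupled with APE1, reading fluorescence at 594 nm released when a quenched double-stranded DNA oligonucleotide substrate is cleaved and separated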
# Description: Inhibition of SMUG1 by quantifying inhibition of SMUG1-mediated cleavage and dissociation of quenched duplex DNA oligonucleotides, measured as fluorescence at 594 nm. To generate a functional strand incision and increase turn-over this assay is coupled to APE1.
measured-property: inhibition

Given "CNCc1ccccc1-c1csc([C@@H](C)Nc2nc(C)nc3cc(OC)c(OC)cc23)c1" , respond with its inhibition. 5.31%

Given "C=C1/C(=C\C=C2/CCC[C@]3(C)[C@@H]([C@H](C)/C=C/C=C/C(O)(CC)CC)CC[C@@H]23)C[C@@H](O)C[C@@H]1O" , respond with its inhibition. -1.6%

Given "CN(C)C(=O)Cn1cc(-c2nc(C3(c4ccc(-c5cnc(N)nc5)cc4)CC3)no2)cn1" , respond with its inhibition. 11.1%

Given "COc1cc(NC(=O)CCN2CCC(OC(=O)Nc3ccccc3-c3ccccc3)CC2)c(Cl)cc1CNC[C@H](O)c1ccc(O)c2[nH]c(=O)ccc12" , respond with its inhibition. 0.984%

Given "Cc1nccc(COC(=O)N2C[C@@H]3[C@@H](CNC(=O)c4ccc5[nH]nnc5c4)[C@@H]3C2)n1" , respond with its inhibition. 19.9%

Given "CC(C)c1cc(Br)c(NC(=O)Nc2cccnc2)c(Br)c1" , respond with its inhibition. -3.86%

Given "CCC(=N\O)/C(C)=C/c1ccc(F)c(C)c1" , respond with its inhibition. 22.6%

Given "CN(C)[C@H]1CCN(c2cc(-c3ccccc3)nc3ccnn23)C1" , respond with its inhibition. 13.5%

Given "OC(c1ccc(-c2ccc(CN3CCN(Cc4ccncc4)CC3)cc2)c(F)c1)(C(F)(F)F)C(F)(F)F" , respond with its inhibition. -2.17%

Given "O=C(NCc1ncc(C(F)(F)F)cc1Cl)c1ccc2c(c1)C1(CCS(=O)(=O)CC1)[C@@H](C1CC1)N2S(=O)(=O)c1ccc(F)cc1" , respond with its inhibition. 6.37%

Given "COc1ccccc1C(=O)Nc1cccc(NC(=O)c2cccc(C)c2)c1" , respond with its inhibition. -5.33%

Given "NCCCNCCCCNCCC(=O)NCCCCCNC(=O)[C@H](CC(N)=O)NC(=O)Cc1ccc(O)cc1O" , respond with its inhibition. -7.3%

Given "COc1ccc(CCCN2CCC(COC(c3ccccc3)c3ccccc3)CC2)cc1" , respond with its inhibition. 9.31%

Given "COc1ccc(-c2csc(NC(=O)[C@H]3CCCCN3S(=O)(=O)c3ccc(C)cc3)n2)cc1" , respond with its inhibition. 12.1%

Given "CNc1nc(Nc2ccccc2)nc(OC(C(F)(F)F)C(F)(F)F)n1" , respond with its inhibition. 2.08%

Given "CN1CCN(c2cnc3c(C4CCN(C(=O)c5ccc(OC(F)(F)F)cc5N)CC4)ncnc3c2)CC1" , respond with its inhibition. 11.7%

Given "CCOC(=O)N1CCC(NS(=O)(=O)c2ccc(NC(=O)c3ccccc3C)c3ccccc23)CC1" , respond with its inhibition. -0.636%

Given "CCc1cc2c(c(CC)n1)CCC(=O)N2Cc1ccc(-c2ccccc2-c2nnn[nH]2)cc1" , respond with its inhibition. -8.27%
